- Experimental Target: human mAChR M4 (Homo sapiens, UniProt P08173)
- Construct: expressed in transfected cells
- Sequence (P08173 1-479): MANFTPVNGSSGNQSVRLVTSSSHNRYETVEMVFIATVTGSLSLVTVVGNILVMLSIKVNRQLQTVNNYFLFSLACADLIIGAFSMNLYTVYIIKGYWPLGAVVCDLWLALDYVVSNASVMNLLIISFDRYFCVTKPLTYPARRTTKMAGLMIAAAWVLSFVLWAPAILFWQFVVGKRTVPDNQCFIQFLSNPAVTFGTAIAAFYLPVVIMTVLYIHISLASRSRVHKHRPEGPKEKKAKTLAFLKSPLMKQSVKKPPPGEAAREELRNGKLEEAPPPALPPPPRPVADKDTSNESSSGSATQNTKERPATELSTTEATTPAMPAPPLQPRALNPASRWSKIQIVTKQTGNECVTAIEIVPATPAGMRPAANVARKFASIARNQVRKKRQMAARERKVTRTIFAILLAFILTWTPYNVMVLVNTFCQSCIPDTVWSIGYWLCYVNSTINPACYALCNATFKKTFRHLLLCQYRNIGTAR
- Protocol Text: mAChR M4 cell-based functional assay (calcium mobilization, CHO-K1 hM4-Gqi5 cells)
- Conditions: positive allosteric modulator activity, increase in the EC20 acetylcholine response, CHO-K1 hM4-Gqi5 cells; read-out: Human M4 EC50
Property Measured: pEC50
pEC50 here is simply -log10 of the concentration when that concentration is written in mol/L.

// known answers, use as guide
Compound	pEC50
Cc1cc(C(=O)N2CCC2C)nnc1N1CCc2ncc(N3CCCn4nccc43)cc2C1 (stereo not drawn)	7.07
Cc1nc(C(F)(F)F)nc(N2CCc3ncc(N4CCCn5nccc54)cc3C2)c1C	7.16
Cc1cc(C(=O)NCCc2ccncc2)cnc1N1CCc2ncccc2C1	5.04
Cc1cc(C(=O)NCc2cncs2)nnc1N1CCc2ncc(CC(F)(F)F)cc2C1	7.39

pEC50 lookup needed for Cc1c(C#N)nnc(N2CCc3ncc(-c4ccc(N5CCN(C)CC5)nc4)cc3C2)c1C , thanks.
6.72

* * *

# maps each entry to its pEC50
- Experimental Target: human mAChR M4 (Homo sapiens)
- Construct: expressed in transfected cells
- Sequence (P08173 1-479): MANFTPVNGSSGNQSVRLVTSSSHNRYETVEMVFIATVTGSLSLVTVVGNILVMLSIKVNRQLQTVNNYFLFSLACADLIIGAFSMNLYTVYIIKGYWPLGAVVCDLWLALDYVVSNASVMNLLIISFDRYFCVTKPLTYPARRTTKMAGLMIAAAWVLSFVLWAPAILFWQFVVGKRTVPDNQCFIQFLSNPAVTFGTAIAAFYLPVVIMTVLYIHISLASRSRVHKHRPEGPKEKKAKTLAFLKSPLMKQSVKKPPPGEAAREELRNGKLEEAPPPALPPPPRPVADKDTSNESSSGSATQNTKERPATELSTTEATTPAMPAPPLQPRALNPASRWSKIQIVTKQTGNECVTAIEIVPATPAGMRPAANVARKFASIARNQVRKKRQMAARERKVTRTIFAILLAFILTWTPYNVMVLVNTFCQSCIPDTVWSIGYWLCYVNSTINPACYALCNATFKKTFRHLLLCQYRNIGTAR
- Protocol Text: mAChR M4 cell-based functional assay (calcium mobilization, CHO-K1 hM4-Gqi5 cells)
- Conditions: positive allosteric modulator activity, increase in the EC20 acetylcholine response, CHO-K1 hM4-Gqi5 cells; read-out: Human M4 EC50
pEC50 here is simply -log10 of the concentration when that concentration is written in mol/L.

Molecule	Experimental Target	pEC50
Cc1cc(C(=O)N(C)Cc2ccncc2)cnc1N1CCc2ncc(-c3cn(C)nc3C)cc2C1	human mAChR M4 (Homo sapiens)	5.41
Cc1ccc(F)c(Oc2cnc3c(c2)CN(c2ncc(C#N)cc2C)CC3)c1	human mAChR M4 (Homo sapiens)	5.77
Cc1cc(C#N)nnc1N1CCc2ncc(N3CCOC(C)(C)C3)cc2C1	human mAChR M4 (Homo sapiens)	6.99
Cc1c(C#N)nnc(N2CCc3ncc(Nc4ccccc4C#N)cc3C2)c1C	human mAChR M4 (Homo sapiens)	6.32
Cc1nc(C)c(-c2cnc3c(c2)CN(c2nnc(C#N)c(C)c2C)CC3)s1	human mAChR M4 (Homo sapiens)	6.53

// map Cc1nc(NCC(C)(C)O)nc(N2CCc3ncc(Nc4ccnn4C)cc3C2)c1C to recorded pEC50 (system: human mAChR M4 (Homo sapiens))
6.58

Quick one: Cc1c(C#N)nnc(N2CCc3ncc(Cc4ccccc4F)cc3C2)c1C
6.37

Quick one: Cc1cc(C#N)cnc1N1CCc2ncc(C3CCOC3)cc2C1 (stereo not shown)
6.41

Quick one: Cc1nc(Cl)c(C)c(N2CCc3ncc(Nc4ccccc4F)cc3C2)n1
6.44

Quick one: Cc1c(C#N)nnc(N2CCc3ncccc3C2)c1C
5.55

* * *

- Experimental Target: human mAChR M4 (Homo sapiens, UniProt P08173)
- Construct: expressed in transfected cells
- Protocol Text: mAChR M4 cell-based functional assay (calcium mobilization, CHO-K1 hM4-Gqi5 cells)
- Conditions: CHO-K1, % ACh maximum at 30 μM; human M4
Classification field: YES = Emax at 30 µM at or over 60%; NO = Emax at 30 µM under 60%.

Compound	Assigned Category
Cc1c(C#N)nnc(N2CCc3ncc(N4CCOC(c5ccccn5)C4)cc3C2)c1C (centres unmarked)	YES
Cc1cc(C(=O)NCc2ccno2)cnc1N1CCc2ncccc2C1	YES
Cc1cc(C(=O)NCc2cncs2)cnc1N1CCc2ncccc2C1	YES
Cc1c(C#N)nnc(N2CCc3ncc(-c4ccncc4)cc3C2)c1C	YES
Cc1cc(C(=O)N2CCC(c3ccncc3)C2)nnc1N1CCc2ncc(N3CCCn4nccc43)cc2C1 (centres unmarked)	YES

In the following, a different compound is considered.
Does Emax at 30 µM meet or surpass 60% for Cc1c(C(=O)NCc2cncs2)nnc(N2CCc3ncccc3C2)c1C ?
YES

* * *

- Experimental Target: human mAChR M4 (Homo sapiens, UniProt P08173)
- Construct: expressed in transfected cells
- Protocol Text: mAChR M4 cell-based functional assay (calcium mobilization, CHO-K1 hM4-Gqi5 cells)
- Conditions: CHO-K1, % ACh maximum at 30 μM; human M4
# maps each entry to its Emax at 30 µM
Just the number please, in %, no unit attached.

// known answers, use as guide
Structure Notation	Data Value
Cc1cc(C#N)cnc1N1CCc2ncc(N3CCOC(C)(C)C3)cc2C1	82
Cc1cc(C(=O)N2CC(F)C2)nnc1N1CCc2ncc(N3CCO[C@H](C)C3)cc2C1	87

Now for the molecule whose Emax at 30 µM we want.
Emax at 30 µM lookup needed for Cc1cc(C(=O)NC2CC3(COC3)C2)cnc1N1CCc2ncc(-c3cn(C)nc3C)cc2C1 , thanks.
64

* * *

- Experimental Target: human mAChR M4 (Homo sapiens)
- Construct: expressed in transfected cells
- Protocol Text: mAChR M4 cell-based functional assay (calcium mobilization, CHO-K1 hM4-Gqi5 cells)
- Conditions: positive allosteric modulator activity, increase in the EC20 acetylcholine response, CHO-K1 hM4-Gqi5 cells; read-out: Human M4 EC50
pEC50: −log10 of the molar value.
Classification field: T = pEC50 at or over 6; F = pEC50 under 6.

Worked cases, answers included:
Compound	Experimental Target	Assigned Category
[2H]C1([2H])Cc2ncc(Nc3cc(C)ncc3F)cc2C([2H])([2H])N1c1nnc(C#N)cc1C	human mAChR M4 (Homo sapiens)	T
Cc1c(C#N)nnc(N2CCc3ncc(Oc4cc(F)ccc4F)cc3C2)c1C	human mAChR M4 (Homo sapiens)	T

Does pEC50 meet or surpass 6 for Cc1cc(C#N)cnc1N1CCc2ncc(C(F)(F)F)cc2C1 ?
T

Quick one: Cc1cc(C(=O)NCc2ncc(C(F)(F)F)cn2)cnc1N1CCc2ncccc2C1
F

Quick one: Cc1c(C#N)nnc(N2CCc3ncc(-c4cc(F)cnc4Cl)cc3C2)c1C
T

Quick one: Cc1cc(C#N)nnc1N1CCc2ncc(-c3c(C)noc3C)cc2C1
T

Quick one: Cc1cc(C#N)cnc1N1CCc2ncc(C(F)F)cc2C1
T

Quick one: Cc1cc(C(=O)N2CC(c3cccnc3)C2)nnc1N1CCc2ncc(-n3cccn3)cc2C1
T

Quick one: Cc1cc(C(=O)NCc2cnc3c(c2)CCC3)cnc1N1CCc2ncccc2C1
F

Quick one: Cc1cc(C(=O)N2CC3(COC3)C2)nnc1N1CCc2ncc(N3CCCn4nccc43)cc2C1
T

Quick one: Cc1c(C#N)nnc(N2CCc3ncc(-c4cccnc4C(F)(F)F)cc3C2)c1C
F

Quick one: Cc1cc(C(=O)NCc2ccc(C(F)(F)F)cn2)cnc1N1CCc2ncccc2C1
F

Quick one: Cc1nc(Cl)c(C)c(N2Cc3cc(N)cnc3C(C)C2)n1 (stereo not shown)
F

* * *

- Experimental Target: human mAChR M4 (Homo sapiens, UniProt P08173)
- Construct: expressed in transfected cells
- Protocol Text: mAChR M4 cell-based functional assay (calcium mobilization, CHO-K1 hM4-Gqi5 cells)
- Conditions: positive allosteric modulator activity, increase in the EC20 acetylcholine response, CHO-K1 hM4-Gqi5 cells; read-out: Human M4 EC50
# maps each entry to its EC50
# output: number + unit

// known answers, use as guide
Molecule	EC50
COc1cnc(Cl)c(-c2cnc3c(c2)CN(c2nnc(C#N)c(C)c2C)CC3)c1 [compound 52]	305 nM
Cc1cc(C(=O)N2CC(F)(F)C2)nnc1N1CCc2ncc(-c3ccnn3C)cc2C1 [Example 567]	70 nM

EC50 lookup needed for Cc1nc(Cl)c(C)c(N2CCc3ncc(C(F)F)cc3C2)n1 [compound 215] , thanks.
137 nM

Origin of measurements: patent US20250230155A1
